// data source = ChEMBL document CHEMBL1201862

Target: Nucleotide-binding oligomerization domain-containing protein 1 (Homo sapiens)
Sequence (Q9Y239 whole entry, the tested form may be a part): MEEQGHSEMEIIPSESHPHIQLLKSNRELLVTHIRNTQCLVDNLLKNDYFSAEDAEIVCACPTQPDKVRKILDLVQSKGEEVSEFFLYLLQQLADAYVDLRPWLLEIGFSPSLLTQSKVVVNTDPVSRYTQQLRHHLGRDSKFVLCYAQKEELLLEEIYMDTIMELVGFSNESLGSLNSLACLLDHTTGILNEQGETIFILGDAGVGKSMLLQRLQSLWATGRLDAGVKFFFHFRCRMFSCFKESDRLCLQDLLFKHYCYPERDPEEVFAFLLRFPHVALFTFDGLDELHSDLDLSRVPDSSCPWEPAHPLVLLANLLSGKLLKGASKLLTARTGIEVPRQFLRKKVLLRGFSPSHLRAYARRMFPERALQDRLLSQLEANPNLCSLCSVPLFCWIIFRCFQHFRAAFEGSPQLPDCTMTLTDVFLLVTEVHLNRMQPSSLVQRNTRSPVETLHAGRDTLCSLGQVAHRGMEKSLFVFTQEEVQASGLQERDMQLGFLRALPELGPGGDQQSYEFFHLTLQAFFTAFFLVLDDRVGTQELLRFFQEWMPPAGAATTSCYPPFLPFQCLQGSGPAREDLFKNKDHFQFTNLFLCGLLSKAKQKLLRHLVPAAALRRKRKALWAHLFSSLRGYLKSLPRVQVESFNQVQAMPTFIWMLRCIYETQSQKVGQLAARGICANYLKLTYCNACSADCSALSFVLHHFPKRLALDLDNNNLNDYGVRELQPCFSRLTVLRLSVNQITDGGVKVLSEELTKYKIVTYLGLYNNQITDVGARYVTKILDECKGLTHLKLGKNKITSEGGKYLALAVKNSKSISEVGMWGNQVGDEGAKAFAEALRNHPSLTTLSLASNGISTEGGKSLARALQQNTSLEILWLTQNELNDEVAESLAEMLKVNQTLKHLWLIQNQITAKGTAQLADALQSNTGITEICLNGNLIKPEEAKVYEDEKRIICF
Assay: blockers of NOD1 pathway activity – revised, SAR follow-up (AID 2333)
Format: functional
Activity calls are given as the source filed them. No stated cut-off is given here; in the data, actives have a measured IC50 and inactives only a lower limit.
Outcomes: label 1 (active), label 0 (inactive)

# structureString, discreteLabel
rows = [
    ("CCOc1ccc(NC(=O)c2ccc(CN3CCc4ccccc43)cc2)cc1", "label 0"),
    ("Cc1ccc(Cn2c(NC(=O)c3ccco3)nc3ccccc32)cc1", "label 0"),
    ("O=C(Nc1cccc([N+](=O)[O-])c1)c1cc2ccccc2cc1O", "label 1"),
    ("COc1cccc(C(=O)Nc2sc3c(c2C(=O)O)CCCC3)c1", "label 1"),
    ("O=C(Nc1ccc(S(=O)(=O)N2CCOCC2)cc1)c1ccc(CN2CCc3ccccc3C2)cc1", "label 1"),
]
